- MEASURED TARGET: USP7 (Homo sapiens (Human), UniProt Q93009)
- Sequence (Q93009 whole entry): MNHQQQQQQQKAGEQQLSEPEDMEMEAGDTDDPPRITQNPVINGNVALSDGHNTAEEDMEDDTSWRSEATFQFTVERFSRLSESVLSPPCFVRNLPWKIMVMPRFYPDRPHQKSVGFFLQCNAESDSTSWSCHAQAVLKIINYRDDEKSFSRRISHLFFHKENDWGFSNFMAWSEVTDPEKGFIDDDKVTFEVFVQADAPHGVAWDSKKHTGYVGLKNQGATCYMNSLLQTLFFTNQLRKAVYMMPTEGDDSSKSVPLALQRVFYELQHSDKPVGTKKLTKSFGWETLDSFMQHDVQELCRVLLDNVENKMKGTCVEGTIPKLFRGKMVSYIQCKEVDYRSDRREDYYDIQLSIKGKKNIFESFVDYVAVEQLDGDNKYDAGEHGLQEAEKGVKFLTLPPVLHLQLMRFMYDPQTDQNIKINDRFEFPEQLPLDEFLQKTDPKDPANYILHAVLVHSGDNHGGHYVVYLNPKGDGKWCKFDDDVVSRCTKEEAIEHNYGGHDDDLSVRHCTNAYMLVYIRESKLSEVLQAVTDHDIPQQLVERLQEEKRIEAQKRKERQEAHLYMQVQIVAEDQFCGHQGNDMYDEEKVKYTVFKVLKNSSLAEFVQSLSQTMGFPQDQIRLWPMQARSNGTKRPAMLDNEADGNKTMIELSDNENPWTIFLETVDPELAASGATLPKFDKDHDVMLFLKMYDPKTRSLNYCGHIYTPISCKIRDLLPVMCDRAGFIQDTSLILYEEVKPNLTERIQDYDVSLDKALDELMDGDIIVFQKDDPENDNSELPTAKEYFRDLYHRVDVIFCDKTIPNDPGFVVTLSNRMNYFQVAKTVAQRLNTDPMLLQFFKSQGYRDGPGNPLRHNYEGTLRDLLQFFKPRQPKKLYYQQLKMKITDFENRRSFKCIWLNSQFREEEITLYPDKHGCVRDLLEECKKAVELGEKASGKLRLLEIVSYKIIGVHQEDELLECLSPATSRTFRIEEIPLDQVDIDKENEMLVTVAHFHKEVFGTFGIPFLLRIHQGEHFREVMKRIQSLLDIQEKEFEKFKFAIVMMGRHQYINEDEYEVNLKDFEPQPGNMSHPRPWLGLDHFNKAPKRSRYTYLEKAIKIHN
- TEST PROTOCOL: USP7 fluorescence polarisation (FP) biochemical assay, ubiquitin-Lys-TAMRA substrate
- ASSAY SETUP: Table 4, biochemical assay; average of at least duplicate experiments; read-out: USP7 IC50
- Protocol: Measurement of USP7 Inhibitory Activity USP7 activity was monitored in a fluorescence polarisation (FP) homogeneous assay using the isopeptide ubiquitin-Lys-TAMRA substrate (U-558, Boston Biochem). Full-length USP7 was purchased from Boston Biochem (His6-USP7FL, E-519). […] FP was measured every 15 min over a period of 1.5 h (within the linear range of the assay) using a Synergy 4 plate reader (BioTek) exciting at 530 nm and measuring the amount of parallel and perpendicular light at 575 nm. […]
The entries below are paired with their reported IC50.

Below are worked cases with known answers.
Cn1nc2c(=O)n(CC3(O)CCN(C(=O)C[C@H](c4ccccc4)C(F)(F)F)CC3)cnc2c1-c1ccc([C@H](N)C(F)F)cc1    < 0.25 µM
CC1(C(=O)N2CCC(O)(Cn3cnc4c(cc(Cl)n4-c4cccc(N5CCOCC5)c4)c3=O)CC2)CC1    < 0.25 µM
Cc1c(Cl)ncn(CC2(O)CCN(C(=O)C[C@@H](C)c3ccccc3)CC2)c1=O    1 to 200 µM

// fetch IC50; item: "CN(C)CC#Cc1c2ncn(CC3(O)CCN(C(=O)C[C@H](c4ccccc4)C(F)(F)F)CC3)c(=O)c2nn1C" ; system: USP7 (Homo sapiens (Human), UniProt Q93009)
1 to 200 µM

// fetch IC50; item: "O=C(c1cnc(C2CC2)o1)N1CCC(O)(Cn2cnc3c(cc(Cl)n3-c3ccc(Cl)cc3)c2=O)CC1" ; system: USP7 (Homo sapiens (Human), UniProt Q93009)
< 0.25 µM
